Reference source for all entries: patent US20200079773A1

Listed here: items and their measured IC50.
- Measured On: JAK3 (Homo sapiens)
- Construct: purchased Carna Biosciences 08-046
- Sequence (P52333 795-1124 limits assumed): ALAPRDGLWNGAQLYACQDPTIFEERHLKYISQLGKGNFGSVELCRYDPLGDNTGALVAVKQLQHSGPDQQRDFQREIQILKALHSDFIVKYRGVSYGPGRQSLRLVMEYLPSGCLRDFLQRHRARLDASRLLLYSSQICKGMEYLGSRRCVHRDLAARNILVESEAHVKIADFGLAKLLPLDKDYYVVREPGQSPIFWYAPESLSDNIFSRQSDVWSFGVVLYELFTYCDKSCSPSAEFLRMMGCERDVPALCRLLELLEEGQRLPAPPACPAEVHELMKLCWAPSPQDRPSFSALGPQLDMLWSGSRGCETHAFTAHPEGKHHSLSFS
- Method: Functional assay of protein kinases (Caliper mobility shift), JAK3
- Assay type: biochemical
- Condition Description: ATP 8 μM, 30 min incubation
- Protocol: Functional Assays of Protein Kinases The functional assays of protein kinases were carried out in 384-well plates using a final volume of 30 μl. […] The reaction was reads in a “Caliper EzReader LabChip 3000” (Caliper, Hopkinton, Mass.) reader, based on electrophoretic mobility of the fluorescent substrate and the phosphorylated product. The inhibition percentages were calculated by comparison between control reactions, for 100% of inhibition and reactions with only DMSO for 0% of inhibition.

Query: Given "O=C(N[C@H]1CC[C@@H](C(=O)O)CC1)c1cccn2c(=O)c3cc(-c4ccc(F)c(F)c4)ccc3nc12" , state its recorded IC50.
Result: < 100 nM

Query: Thanks! And "O=C(N[C@H]1CC[C@@H](C(=O)O)CC1)c1cccn2c(=O)c3cc(C4CC4)ccc3nc12" ?
Result: < 100 nM

Query: Thanks! And "O=C(NC12CCC(C(=O)O)(CC1)C2)c1cccn2c(=O)c3cc(C4CC4)ccc3nc12" ?
Result: 100 to 1000 nM

Next:
Query: Given "O=C(O)c1ccc(-c2ccc3nc4c(C(=O)N[C@H]5CC[C@@H](C(=O)O)CC5)cccn4c(=O)c3c2)s1" , state its recorded IC50.
Result: < 100 nM

Query: Thanks! And "O=C(N[C@H]1CC[C@@H](C(=O)O)CC1)c1cccn2c(=O)c3cc(-c4cncnc4)ccc3nc12" ?
Result: < 100 nM

Query: Thanks! And "N#Cc1cccc(-c2ccc3nc4c(C(=O)N[C@H]5CC[C@@H](C(=O)O)CC5)cccn4c(=O)c3c2)c1" ?
Result: < 100 nM

* * *

- Measured On: TYK2 (Homo sapiens, UniProt P29597)
- Sequence (P29597 871-1187 limits assumed): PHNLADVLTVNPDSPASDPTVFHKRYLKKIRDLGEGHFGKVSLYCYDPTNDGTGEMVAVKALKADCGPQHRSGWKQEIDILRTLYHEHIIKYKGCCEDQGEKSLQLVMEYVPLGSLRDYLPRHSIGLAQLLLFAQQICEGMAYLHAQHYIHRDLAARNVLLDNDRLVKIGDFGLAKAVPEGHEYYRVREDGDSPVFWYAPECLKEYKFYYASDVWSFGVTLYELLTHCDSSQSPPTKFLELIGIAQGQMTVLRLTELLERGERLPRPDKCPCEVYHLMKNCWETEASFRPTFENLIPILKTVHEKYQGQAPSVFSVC
- Method: Functional assay of protein kinases (Caliper mobility shift), TYK2
- Condition Description: ATP 20 μM, 45 min incubation
Listed here: items and their measured IC50.

Below, 4 compounds whose answers are already recorded.
Query: What measured IC50 is associated with "O=C(N[C@H]1CC[C@H](C(=O)O)CC1)c1cccn2c(=O)c3cc(-c4ccncc4)ccc3nc12" on TYK2 (Homo sapiens, UniProt P29597)?
Result: ≥ 1000 nM

Query: Thanks! And "N#Cc1cccc(-c2ccc3nc4c(C(=O)N[C@H]5CC[C@@H](C(=O)O)CC5)cccn4c(=O)c3c2)c1" ?
Result: < 100 nM

Query: Thanks! And "O=C(N[C@H]1CC[C@@H](C(=O)O)CC1)c1cccn2c(=O)c3cc(-c4ccncc4F)ccc3nc12" ?
Result: 100 to 1000 nM

Query: Thanks! And O=C(NC1CCC(C(=O)O)CC1)c1cccn2c(=O)c3cc(O)ccc3nc12 (stereo not drawn) ?
Result: 100 to 1000 nM

Next:
Query: What measured IC50 is associated with "O=C(O)c1ccc(-c2ccc3nc4c(C(=O)N[C@H]5CC[C@@H](C(=O)O)CC5)cccn4c(=O)c3c2)cc1" on TYK2 (Homo sapiens, UniProt P29597)?
Result: < 100 nM

Query: Thanks! And "O=C(N[C@H]1CC[C@@H](C(=O)O)CC1)c1cc(Br)cn2c(=O)c3ccccc3nc12" ?
Result: < 100 nM

Query: Thanks! And "O=C(N[C@H]1CC[C@@H](C(=O)O)CC1)c1cccn2c(=O)c3cc(-c4cccc(F)c4)ccc3nc12" ?
Result: < 100 nM

Query: Thanks! And N#Cc1ccc2nc3c(C(=O)NC4CCC(C(=O)O)CC4)cccn3c(=O)c2c1 (stereo not drawn) ?
Result: ≥ 1000 nM

* * *

- Measured On: JAK1 (Homo sapiens, UniProt P23458)
- Sequence (P23458 850-1154 limits assumed): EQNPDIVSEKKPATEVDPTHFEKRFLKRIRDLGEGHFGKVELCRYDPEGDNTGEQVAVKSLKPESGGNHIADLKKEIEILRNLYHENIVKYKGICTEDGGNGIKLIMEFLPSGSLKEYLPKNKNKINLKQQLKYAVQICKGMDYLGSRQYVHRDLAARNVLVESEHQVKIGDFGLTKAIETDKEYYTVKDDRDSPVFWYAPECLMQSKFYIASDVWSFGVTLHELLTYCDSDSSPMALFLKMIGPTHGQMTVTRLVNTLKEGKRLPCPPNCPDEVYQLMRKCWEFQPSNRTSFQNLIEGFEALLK
- Method: Functional assay of protein kinases (Caliper mobility shift), JAK1
- Condition Description: ATP 100 μM, 150 min incubation
pIC50: −log10 of the molar value.
Quantity Name: pIC50

Below, 5 compounds whose answers are already recorded.
Query: What measured pIC50 is associated with Cc1cc(C(=O)NC2CCC(C(=O)O)CC2)c2nc3ccccc3c(=O)n2c1 (centres unmarked) on JAK1 (Homo sapiens, UniProt P23458)?
Result: ≤ 6.00

Query: Thanks! And "O=C(NC12CCC(C(=O)O)(CC1)CC2)c1cccn2c(=O)c3cc(C4CC4)ccc3nc12" ?
Result: ≤ 6.00

Query: Thanks! And O=C(NC1CCC(C(=O)O)CC1)c1cccn2c(=O)c3cc(Br)ccc3nc12 (centres unmarked) ?
Result: ≤ 6.00

Query: Thanks! And "O=C(N[C@H]1CC[C@@H](C(=O)O)CC1)c1cccn2c(=O)c3cc(-c4ccccc4)ccc3nc12" ?
Result: ≤ 6.00

Query: Thanks! And "O=C(N[C@H]1CC[C@@H](C(=O)O)CC1)c1cccn2c(=O)c3cc(-c4ccc(F)cc4)ccc3nc12" ?
Result: ≤ 6.00

Next:
Query: What measured pIC50 is associated with "O=C(N[C@H]1CC[C@@H](C(=O)O)CC1)c1cccn2c(=O)c3cc(C4CC4)ccc3nc12" on JAK1 (Homo sapiens, UniProt P23458)?
Result: ≤ 6.00

Query: Thanks! And "O=C(N[C@H]1CC[C@@H](C(=O)O)CC1)c1cccn2c(=O)c3cc(-c4ccncc4)ccc3nc12" ?
Result: ≤ 6.00

Query: Thanks! And "O=C(NC12CCC(C(=O)O)(CC1)C2)c1cccn2c(=O)c3cc(C4CC4)ccc3nc12" ?
Result: ≤ 6.00

* * *

- Measured On: JAK3 (Homo sapiens)
- Method: Functional assay of protein kinases (Caliper mobility shift), JAK3
- Condition Description: ATP 8 μM, 30 min incubation
- Procedure: Functional Assays of Protein Kinases The functional assays of protein kinases were carried out in 384-well plates using a final volume of 30 μl. […] The reaction was reads in a “Caliper EzReader LabChip 3000” (Caliper, Hopkinton, Mass.) reader, based on electrophoretic mobility of the fluorescent substrate and the phosphorylated product. The inhibition percentages were calculated by comparison between control reactions, for 100% of inhibition and reactions with only DMSO for 0% of inhibition.
pIC50: −log10 of the molar value.
Listed here: items and their measured pIC50.

Below, 5 compounds whose answers are already recorded.
Query: Given O=C(NC1CCC(C(=O)O)CC1)c1cccn2c(=O)c3ccccc3nc12 (centres unmarked) [Example 12] , state its recorded pIC50.
Result: 6.00 to 7.00

Query: Thanks! And O=C(N[C@H]1CC[C@@H](C(=O)O)CC1)c1cccn2c(=O)c3cc(-c4cccnc4)ccc3nc12 [Example 34] ?
Result: > 7.00

Query: Thanks! And O=C(N[C@H]1CC[C@@H](C(=O)O)CC1)c1cccn2c(=O)c3cc(-c4ccncc4)ccc3nc12 [Example 17] ?
Result: > 7.00

Query: Thanks! And Cc1cc(C(=O)N[C@H]2CC[C@@H](C(=O)O)CC2)c2nc3ccccc3c(=O)n2c1 [Example 11] ?
Result: ≤ 6.00

Query: Thanks! And N#Cc1ccc2nc3c(C(=O)NC4CCC(C(=O)O)CC4)cccn3c(=O)c2c1 (centres unmarked) [Example 21] ?
Result: 6.00 to 7.00

Next:
Query: Given O=C(NC1CCC(C(=O)O)CC1)c1cccn2c(=O)c3cc(Cl)ccc3nc12 (centres unmarked) [Example 23] , state its recorded pIC50.
Result: 6.00 to 7.00

Query: Thanks! And O=C(N[C@H]1CC[C@@H](C(=O)O)CC1)c1cccn2c(=O)c3cc(-c4cccc(F)c4)ccc3nc12 [Example 29] ?
Result: > 7.00

Query: Thanks! And N#Cc1ccc(-c2ccc3nc4c(C(=O)N[C@H]5CC[C@@H](C(=O)O)CC5)cccn4c(=O)c3c2)s1 [Example 42] ?
Result: > 7.00

* * *

Listed here: items and their measured IC50.
- Measured On: TYK2 (Homo sapiens)
- Method: Functional assay of protein kinases (Caliper mobility shift), TYK2
- Condition Description: ATP 20 μM, 45 min incubation
- Method: Functional Assays of Protein Kinases The functional assays of protein kinases were carried out in 384-well plates using a final volume of 30 μl. […] The reaction was reads in a “Caliper EzReader LabChip 3000” (Caliper, Hopkinton, Mass.) reader, based on electrophoretic mobility of the fluorescent substrate and the phosphorylated product. The inhibition percentages were calculated by comparison between control reactions, for 100% of inhibition and reactions with only DMSO for 0% of inhibition.

Below, 3 compounds whose answers are already recorded.
Query: Given O=C(NC1CCC(C(=O)O)CC1)c1cccn2c(=O)c3cc(Cl)ccc3nc12 (stereo not drawn) , state its recorded IC50.
Result: 100 to 1000 nM

Query: Thanks! And O=C(NC1CCC(C(=O)O)CC1)c1cccn2c(=O)c3cc(C4CC4)ccc3nc12 (stereo not drawn) ?
Result: ≥ 1000 nM

Query: Thanks! And "O=C(N[C@H]1CC[C@@H](C(=O)O)CC1)c1cccn2c(=O)c3cc(-c4ccc(F)cc4)ccc3nc12" ?
Result: < 100 nM

Next:
Query: Given O=C(NC1CC(C(=O)O)C1)c1cccn2c(=O)c3cc(C4CC4)ccc3nc12 (stereo not drawn) , state its recorded IC50.
Result: 100 to 1000 nM

Query: Thanks! And "O=C(N[C@H]1CC[C@@H](C(=O)O)CC1)c1cccn2c(=O)c3cc(-c4cccs4)ccc3nc12" ?
Result: < 100 nM

Query: Thanks! And "O=C(O)c1ccc(-c2ccc3nc4c(C(=O)N[C@H]5CC[C@@H](C(=O)O)CC5)cccn4c(=O)c3c2)s1" ?
Result: < 100 nM
